system: PXR:RXRa (NR concentration 270 nM, RXRa partner concentration 90 nM); test: PBM binding z-score (relative to random genomic background probes); higher = stronger binding; sequences stand for … in GC…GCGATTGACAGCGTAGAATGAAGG
Category | rule: reported PBM binding z-score within range, see low-valued = under 1, mid-valued = from 1 up to 3, high-valued = 3 and over

- TTACCAAGGTGAAGGTCTTTGATCCCTCTGTAGA: low-valued
- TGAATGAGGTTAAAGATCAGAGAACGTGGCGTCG: mid-valued
- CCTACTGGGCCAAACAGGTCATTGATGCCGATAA: mid-valued
- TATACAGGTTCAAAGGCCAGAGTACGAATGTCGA: mid-valued
- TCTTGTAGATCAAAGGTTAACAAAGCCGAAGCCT: mid-valued
- CGGACTAGGTCATTGACAGGACAGTGAATAGTAA: mid-valued
- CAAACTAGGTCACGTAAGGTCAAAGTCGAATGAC: high-valued
- CCTAGCAGGCCAGGGTCACACAAGCATTTCGCTT: high-valued
- CGTGCAAGGTCAGCAGGTCAGTGAAAGCGACGTG: high-valued
- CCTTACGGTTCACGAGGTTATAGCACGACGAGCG: high-valued
- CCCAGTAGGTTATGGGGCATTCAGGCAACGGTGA: low-valued
- GCTAGCAGGCCATTTGGGTCATTCAATGACGGGC: low-valued

----------
system: LXRa homodimer (NR concentration 270 nM); assay: PBM binding z-score (relative to random genomic background probes); higher = stronger binding; sequences stand for … in GC…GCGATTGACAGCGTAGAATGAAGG
# binarize PBM binding z-score: threshold 0.6 inclusive, high side label 1, low side label 0

- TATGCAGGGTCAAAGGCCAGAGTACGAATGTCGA: label 1
- CCTACTGGGCCATTCAGAGGTCGTTGATCATATG: label 1
- AGAACGAGGGCAATGAGTTGTTAGCACGGGTGGC: label 0
- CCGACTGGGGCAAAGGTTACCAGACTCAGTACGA: label 0
- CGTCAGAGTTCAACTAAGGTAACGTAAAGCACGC: label 1
- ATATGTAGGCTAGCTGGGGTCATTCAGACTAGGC: label 1
- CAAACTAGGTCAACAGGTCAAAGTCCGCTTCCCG: label 1
- TCTCGGAGGACACGAAAGGTCAGAGGTCGACATC: label 1
- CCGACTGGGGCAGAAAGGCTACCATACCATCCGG: label 0
- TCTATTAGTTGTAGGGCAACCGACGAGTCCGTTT: label 0
- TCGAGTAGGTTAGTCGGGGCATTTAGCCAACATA: label 0
- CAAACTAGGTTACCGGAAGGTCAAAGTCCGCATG: label 1
- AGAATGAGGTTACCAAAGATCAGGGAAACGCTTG: label 0
- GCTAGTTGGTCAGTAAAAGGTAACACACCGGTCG: label 0
- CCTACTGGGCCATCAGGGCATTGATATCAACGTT: label 0
- CCTCCTAGGTCATGGTCAGCTAATCTACAGTATG: label 1
- TTGCCTAGGTCATGGGCCAGTATACCACGCGAAC: label 1
- CAAACTAGGTCAAACGTCAAAGTCGAGCCAACCA: label 1
- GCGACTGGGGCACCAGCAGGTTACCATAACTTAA: label 0
- TCATATAGATAATACAGGTGAAAGTCGGCATCTA: label 0
- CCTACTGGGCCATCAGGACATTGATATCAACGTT: label 0
- TCTTGTAGATCAATAGAGGTCAAGAAAGTGCGCT: label 1
- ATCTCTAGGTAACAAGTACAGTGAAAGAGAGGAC: label 0
- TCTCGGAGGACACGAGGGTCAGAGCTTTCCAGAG: label 0
- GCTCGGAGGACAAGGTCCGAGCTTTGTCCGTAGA: label 0
- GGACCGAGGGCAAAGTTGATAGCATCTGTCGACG: label 0
